B1: Twister Ribozyme (parent)
chain: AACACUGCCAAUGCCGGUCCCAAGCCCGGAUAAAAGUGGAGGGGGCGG

variants of: B1; assay: self-cleavage, relative activity (ratio to wild type); higher = more cleavage; co-transcriptional
Kindly return True if reported self-cleavage is no lower than 0.2; return False if it is lower.

1) U6A U12C    True
2) C8U G42A    False
3) G7A U18C    False
4) A10U C20A    False
5) A10C C27U    True
6) C8A U31A    True
7) A11U G39U    True
8) C9A U31G    True
9) C19G G39C    False
10) C9G G29C    True
11) G36A G38U    False
